# Species on record: Rattus norvegicus
# RUN_DESCRIPTION: Open TG-GATES - Regimen: Daily Repeat
# Type: toxicity, organism-based, Sprague-Dawley
# Design: regimen Daily Repeat, gender Male, age 6 weeks
# CONDITION_LABEL: in vivo, po, 0 mg/kg, […], tissue Blood, route gavage, dose level Control, time 28 day
MEASUREMENT_TYPE: PT (s)
Dear colleague, please return just the value in s, with no unit written.

Example entries begin here.
1) C[C@](N)(Cc1ccc(O)c(O)c1)C(=O)O	13.6
2) Oc1ncnc2[nH]ncc12	12.3
3) O=C(N[C@H](CO)[C@H](O)c1ccc([N+](=O)[O-])cc1)C(Cl)Cl	14.8
4) CCc1oc2ccccc2c1C(=O)c1cc(I)c(O)c(I)c1	11.9

Record summary for CN1C(=O)OC(C)(C)C1=O : reported PT = 13.7

Record summary for CCC(C)(C)C(=O)O[C@H]1C[C@@H](C)C=C2C=C[C@H](C)[C@H](CC[C@@H]3C[C@@H](O)CC(=O)O3)[C@H]21 : reported PT = 11.7

Record summary for C[C@]12CCC(=O)C=C1CC[C@@H]1[C@@H]2CC[C@@]2(C)[C@H]1CC[C@]2(C)O : reported PT = 13.5

====

# Species: Rattus norvegicus
# RUN_DESCRIPTION: Open TG-GATES - Regimen: Daily Repeat
# Assay type: toxicity, organism-based, Sprague-Dawley
# Design: regimen Daily Repeat, gender Male, age 6 weeks
# CONDITION_LABEL: in vivo, po, 1000 mg/kg, 72 h, tissue Plasma, route gavage, dose level High, time 3 day
DBIL for assorted compounds
Dear colleague, please return just the value in mg/dL, with no unit written.

Example entries begin here.
1) O=C(O)c1cccnc1	0
2) CC(C)(S)[C@@H](N)C(=O)O	0.012

Record summary for CCN1CCCC1CNC(=O)c1cc(S(N)(=O)=O)ccc1OC (centres undefined) [SULPIRIDE] : reported DBIL = 0.01

Record summary for O=C(N[C@H](CO)[C@H](O)c1ccc([N+](=O)[O-])cc1)C(Cl)Cl : reported DBIL = 0.012

====

# Organism: Rattus norvegicus
# RUN_DESCRIPTION: Open TG-GATES - Regimen: Single
# Type: toxicity, organism-based, Sprague-Dawley
# Design: regimen Single, gender Male, age 6 weeks
# CONDITION_LABEL: in vivo, po, 0 mg/kg, 3 h, tissue Blood, route gavage, dose level Control
MCHC for assorted molecules
Dear colleague, please return just the value in %, with no unit written.

Record summary for CCC(C)(C)C(=O)O[C@H]1C[C@@H](C)C=C2C=C[C@H](C)[C@H](CC[C@@H]3C[C@@H](O)CC(=O)O3)[C@H]21 : reported MCHC = 32.8

====

# Species: Rattus norvegicus
# RUN_DESCRIPTION: Open TG-GATES - Regimen: Daily Repeat
# Assay type: toxicity, organism-based, Sprague-Dawley
# Design: regimen Daily Repeat, gender Male, age 6 weeks
# CONDITION_LABEL: in vivo, po, 100 mg/kg, […], tissue Plasma, route gavage, dose level Low, time 7 day
TBIL for assorted compounds

1. CC(C)(S)[C@@H](N)C(=O)O	0.028 mg/dL
2. O=C(N[C@H](CO)[C@H](O)c1ccc([N+](=O)[O-])cc1)C(Cl)Cl	0.062 mg/dL
3. O=C(O)c1cccnc1	0 mg/dL

Let us examine a further case.
Record summary for CCN1CCCC1CNC(=O)c1cc(S(N)(=O)=O)ccc1OC (centres undefined) [SULPIRIDE] : reported TBIL = 0.056 mg/dL
